Source: PubChem BioAssay AID2610

Tested on: BJeLR fibroblast viability, Alamar Blue fluorescence, 48 h
Test: BJeLR fibroblast growth inhibition, viability readout – cell-based, alamar blue fluorescence, 48 h, cherrypicked samples, dose response (AID 2610);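 further: BJ fibroblasts with hTERT plus SV40 large and small T and HRAS V12; EC50 for loss of viable cells so potency reflects cytotoxic compounds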
Results filed as inconclusive are left out. Activity calls are given as the source filed them.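 How the source made its calls: active means EC50 no more than tenfold above the top concentration tested, with valid fit and all samples agreeing; inconclusive means flat fit at 30 to 70% inhibition, poor fit, or split samples; inactive means EC50 beyond tenfold the top concentration tested.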
Would you mind answering with one of these outcomes? active, inactive

Completed entries (count: 4):
# Compound, Experimental target, Label
data = [
    ("COC(=O)c1[nH]c2c(c1C)C(=O)CC(c1cccs1)C2 (stereo not drawn)", "BJeLR fibroblast viability, Alamar Blue fluorescence, 48 h", "active"),
    ("O=S(=O)(c1ccc(NC(=S)NCc2cccnc2)cc1)N1CCCCC1", "BJeLR fibroblast viability, Alamar Blue fluorescence, 48 h", "active"),
    ("COc1ccccc1N(C(=O)CCl)c1cn(C(C)=O)c2ccccc12", "BJeLR fibroblast viability, Alamar Blue fluorescence, 48 h", "active"),
    ("O=Cc1cc2ccccc2nc1SCc1ccc(Cl)cc1", "BJeLR fibroblast viability, Alamar Blue fluorescence, 48 h", "active"),
]

IN: Each compound tested received a call. Report the one for O=C(Cc1ccc(Cl)cc1)c1c[nH]c(C(=O)NCc2cccnc2)c1 .
OUT: inactive

IN: Per the records of this test, what outcome belongs to CCN1/C(=C/c2ccc3cc(C)ccc3[n+]2CC)Sc2ccc3sccc3c21 ?
OUT: active

IN: What is the recorded call for this compound in the test? CCN1CCc2c(sc(NC(=O)c3cc4ccccc4cc3OC)c2C(N)=O)C1
OUT: active

IN: Tell me the assay call for O=C(CCl)N(CCCNC(=O)C(F)(F)F)c1ccc([N+](=O)[O-])cc1 please.
OUT: active

IN: How was COc1ccc(C)cc1Nc1c2c(nc3ccccc13)CCC2 classified in this test?
OUT: active

IN: Called result for COc1cccc(N2C(N)=NC(N)=NC2(C)C)c1
OUT: inactive

IN: Recorded test call requested for CCn1c(C)nc2cc(-c3nc4n(n3)Cc3ccccc3-4)ccc21
OUT: inactive

IN: For O=C(Nc1ccc([N+](=O)[O-])cc1)Nc1ccon1 , what call appears in the results of this test?
OUT: active

IN: Entry O=S(=O)(c1ccc(Cl)cc1)c1snnc1-c1ccccc1 : call = ?
OUT: active

IN: Dear all, I need the recorded test outcome for CCN(CC)Cc1c(O)ccc2c1O/C(=C\C=C\c1ccccc1)C2=O , thank you.
OUT: inactive

IN: What was the test verdict on COc1ccccc1N1CCN(C(=O)c2cc(=O)c3cc(C)cc(C)c3o2)CC1 ?
OUT: active

IN: Please state the recorded outcome for this compound: CCOc1ccc(Nc2nc(N)nc(CCl)n2)cc1
OUT: active

IN: How was CC1(C)C[C@H]2C=C(C=O)[C@]3(C=O)C[C@]3(C)[C@H]2C1 classified in this test?
OUT: active

IN: Check the results log: what was the call for CC(C)Oc1ccccc1C1CC(=O)Nc2cc3c(cc21)OCCO3 (stereo not drawn) ?
OUT: active

IN: Name the outcome recorded for CC(=O)c1ccc(NC(=O)N2CCc3ccccc3C2)cc1 in the assay.
OUT: inactive

IN: Kindly provide the recorded test outcome for the following compound: CCOC(=O)c1c(CSC(=N)N)n(-c2ccc(C)cc2)c2cc(Br)c(OC(C)=O)cc12
OUT: inactive

====

System: BJeLR fibroblast viability, Alamar Blue fluorescence, 48 h
Assay: BJeLR fibroblast growth inhibition, viability readout – cell-based, alamar blue fluorescence, 48 h, cherrypicked samples, dose response (AID 2610)
Inconclusive results are not listed. Active and inactive are the calls of the source.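 Rule for the calls: active = EC50 no more than tenfold above the top concentration tested, with valid fit and all samples agreeing; inconclusive = flat fit at 30 to 70% inhibition, poor fit, or split samples; inactive = EC50 beyond tenfold the top concentration tested.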
Reply using exactly one outcome from label 1 for active, label 0 for inactive

Solved cases (5 shown):
# Compound, Label
measured = [
    ("O=C(NC(Nc1nc2ccc([N+](=O)[O-])cc2s1)(C(F)(F)F)C(F)(F)F)c1ccccc1", "label 1"),
    ("Nc1nc(CCl)nc(Nc2ccc3ccccc3c2)n1", "label 1"),
    ("O=C(NCc1cccnc1)c1ccc(NC(=O)c2ccc([N+](=O)[O-])cc2)cc1", "label 1"),
    ("O=[N+]([O-])c1ccccc1N/N=C\\c1ccccc1Cl", "label 0"),
    ("CCOC(=O)c1ccc(NC(=O)Nc2ccon2)cc1", "label 1"),
]

Here's the next entry for you.
IN: What call does the record list for CCN(CC)CCCNC(=O)c1cc(-c2ccccc2)c(N2CCCCC2)s1 ?
OUT: label 0

====

System: BJeLR fibroblast viability, Alamar Blue fluorescence, 48 h
Assay: BJeLR fibroblast growth inhibition, viability readout – cell-based, alamar blue fluorescence, 48 h, cherrypicked samples, dose response (AID 2610);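 further: BJ fibroblasts with hTERT plus SV40 large and small T and HRAS V12; EC50 for loss of viable cells so potency reflects cytotoxic compounds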
Records with an inconclusive call do not appear.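 Rule for the calls: active = EC50 no more than tenfold above the top concentration tested, with valid fit and all samples agreeing; inconclusive = flat fit at 30 to 70% inhibition, poor fit, or split samples; inactive = EC50 beyond tenfold the top concentration tested.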
In this exercise, the only acceptable responses are active, inactive

Some entries whose results are on file:
# Compound, Label
measured = [
    ("CC1CC(C)CN(S(=O)(=O)c2ccc(C(=O)NCCCn3ccnc3)cc2)C1 (centres undefined)", "active"),
    ("CN(C)CCNC(=O)c1cc2c(s1)-c1ccc(Cl)cc1SC2", "active"),
    ("O=C(/C=C\\c1ccco1)Nc1cc([N+](=O)[O-])ccc1F", "active"),
    ("C/C(=N\\Nc1ccc2nncn2n1)c1ccccn1", "active"),
    ("COc1ccc(/C=C2\\CN(Cc3ccccc3)C/C(=C\\c3ccc(OC)c(O)c3)C2=O)cc1O", "active"),
]

IN: Lab log entry: CC(=O)c1ccc(Oc2cc(C)nc(-n3nc(C)cc3C)n2)cc1 — outcome as called in the assay?
OUT: active

IN: Tell me the assay call for CN1C/C(=C/c2ccncc2)C(=O)/C(=C/c2ccncc2)C1 please.
OUT: active

====

Tested on: BJeLR fibroblast viability, Alamar Blue fluorescence, 48 h
Experiment: BJeLR fibroblast growth inhibition, viability readout – cell-based, alamar blue fluorescence, 48 h, cherrypicked samples, dose response (AID 2610);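 further: BJ fibroblasts with hTERT plus SV40 large and small T and HRAS V12; EC50 for loss of viable cells so potency reflects cytotoxic compounds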
Inconclusive results are not listed. Calls of active or inactive are those of the source.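 How the source made its calls: active means EC50 no more than tenfold above the top concentration tested, with valid fit and all samples agreeing; inconclusive means flat fit at 30 to 70% inhibition, poor fit, or split samples; inactive means EC50 beyond tenfold the top concentration tested.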
Give your call using only these classes: active, inactive

Sample answers from the record:
# Compound, Label
data = [
    ("COc1ccc(C(=O)Nc2nc3ccccc3s2)c(OC)c1", "inactive"),
    ("C/C(=N\\Nc1nc2ccccc2[nH]1)c1ccccn1", "active"),
    ("COc1cc([C@H]2c3[nH]c4ccccc4c3C[C@H]3C(=O)N4[C@@H](c5cc(OC)c(OC)c(OC)c5)c5[nH]c6ccccc6c5C[C@H]4C(=O)N23)cc(OC)c1OC", "inactive"),
]

IN: Call for entry COCCCN=C1NN=C(c2cc(C)n(Cc3ccco3)c2C)CS1 :
OUT: active

IN: Please let me know the test result on file for CC(C)(C)c1nnc(N/N=C/c2cc(Br)ccc2O)n(N)c1=O .
OUT: active

====

System: BJeLR fibroblast viability, Alamar Blue fluorescence, 48 h
Test: BJeLR fibroblast growth inhibition, viability readout – cell-based, alamar blue fluorescence, 48 h, cherrypicked samples, dose response (AID 2610);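 further: BJ fibroblasts with hTERT plus SV40 large and small T and HRAS V12; EC50 for loss of viable cells so potency reflects cytotoxic compounds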
Results filed as inconclusive are left out. Activity calls are given as the source filed them.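 Rule for the calls: active = EC50 no more than tenfold above the top concentration tested, with valid fit and all samples agreeing; inconclusive = flat fit at 30 to 70% inhibition, poor fit, or split samples; inactive = EC50 beyond tenfold the top concentration tested.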
Pick from Y for active, N for inactive when you respond.

# Compound, Label
records = [
    ("Cc1cc(C)c2nc(C)cc(N/N=C/c3ccc(O)cc3)c2c1", "Y"),
]

IN: Assay result, entry COc1ccc(N/N=C(/N=Nc2nc(C)cc(=O)[nH]2)c2ccccc2)cc1 — outcome?
OUT: Y

IN: Per the assay record, what outcome was assigned to CC(=O)Nc1ccc(NC(=O)CN(c2cccc([N+](=O)[O-])c2)S(C)(=O)=O)cc1 ?
OUT: Y

IN: Fill in: this test's call for COc1ccc(NC(=O)C(=O)NCC2CCCN2S(=O)(=O)c2ccc(C)cc2)cc1 (centres undefined) is ___
OUT: Y

IN: What is the recorded call for this compound in the test? Cn1ncc2c(O/N=C(\N)c3ccc(C(C)(C)C)cc3)ncnc21
OUT: Y

IN: I would be grateful if you could indicate the recorded call for Cc1cccc(Nc2nc(N)nc(CCl)n2)c1C .
OUT: Y

IN: Can you look up the reported call for O=C(c1ccc2c3n(nc2c1)-c1ccccc1CO3)N1CCOCC1 for me?
OUT: N

IN: Outcome? CCCc1sc(N/N=C/c2ccccn2)nc1-c1ccc(F)cc1
OUT: Y

IN: In this assay, the call recorded for COc1cc(/C=C/c2ccc3cccc(O)c3n2)cc(OC)c1OC was what?
OUT: Y

IN: Answer briefly: the call reported for COc1ccc(N2C(=O)/C(=C/c3ccc(C)o3)C(=O)NC2=S)cc1 in this assay.
OUT: N

IN: Please let me know the test result on file for C[C@@H]1O[C@@H](O[C@H]2C[C@@H](O)[C@]3(CO)[C@H]4[C@H](O)C[C@]5(C)[C@@H](C6COC(=O)C6)CC[C@]5(O)[C@@H]4CC[C@]3(O)C2)[C@H](O)[C@H](O)[C@H]1O (some centres undefined) .
OUT: Y

IN: Test call, this compound: COc1ccc(F)cc1CN1CCN(C(=O)CCC(=O)Nc2nnc(CC(C)C)s2)CC1
OUT: N

IN: GET /call?item= Nc1ccc2c(c1)C(=O)C(=O)c1ccccc1-2 returns the recorded outcome of this test.
OUT: Y

IN: Tell me the assay call for Oc1c(N=Nc2ccccn2)ccc2ccccc12 please.
OUT: Y
